Please provide measured pKi for the entries that follow.
molecular target: Carbonic anhydrase 9 (Homo sapiens); test: Inhibition of recombinant human carbonic anhydrase IX assessed as inhibition constant incubated for 15 mins by phenol red dye based stopped-flow CO2 hydration assay
Quick note: pKi values are minus log10 of concentrations in mol/L.

Recorded pKi for OB1OCc2ccc(-n3cc(COc4ccccc4)nn3)cc21 , please? 7.54

What about this compound? OCc1cn(-c2ccc3c(c2)B(O)OC3)nn1 6.84

What about this compound? CCOC(=O)c1cn(-c2ccc3c(c2)B(O)OC3)nn1 6.47

What about this compound? OB1OCc2ccc(-n3cc(CSc4ccccc4)nn3)cc21 7.48

What about this compound? [N-]=[N+]=Nc1ccc2c(c1)B(O)OC2 6.27

What about this compound? COc1cccc(OCc2cn(-c3ccc4c(c3)B(O)OC4)nn2)c1 7.49
